Please respond with reported IC50 for every item in the list.
assay: Antiproliferative activity against MDR human HL60R cell line

Worked examples, 3 compounds total:
compound	IC50
Oc1ccc(/C=C/c2cc(O)cc(O)c2)cc1	60 µM
COc1cc(OC)cc(-c2cccc(-c3ccc(O)cc3)c2)c1	20 µM
COc1cc(/C=C/c2cccc(O)c2)cc(OC)c1	> 100 µM

Please state IC50 for every compound in the list that follows.
1. COc1cc(OC)cc(-c2ccccc2-c2ccc(O)cc2)c1
2. Oc1ccc(-c2ccc(-c3cc(O)cc(O)c3)cc2)cc1 [[1,1';4',1'']-terphenyl-4,3'',5''-triol]

Result ::
1. 28 µM
2. 23 µM
